Hello, the source for this data is ChEMBL document CHEMBL1126799, in case you need it.

- Tested on: Serratia marcescens
- method: Tested in vitro against Serratia marcescens IAM1184 by agar dilution method
- Type: functional
reported_metric: MIC (µg/mL)
Record the value in µg/mL, omitting the unit from your answer.

CC1CN(c2c(F)cc3c(=O)c(C(=O)O)cn(C4CC4)c3c2F)CC(C)N1O (stereo not given)	6.25
O=C(O)c1cn(C2CC2)c2cc(N3CCNCC3)c(F)cc2c1=O [CIPROFLOXACIN]	0.39
CC1COc2c(N3CCN(C)CC3)c(F)cc3c(=O)c(C(=O)O)cn1c23 (stereo not given) [OFLOXACIN]	0.78
O=C(O)c1cn(C2CC2)c2c(F)c(N3CCNCC3)c(F)cc2c1=O	0.39

Next up:
Input: Return MIC for the following compound: CC1CN(c2c(F)cc3c(=O)c(C(=O)O)cn(C4CC4)c3c2F)CC(C)N1 (stereo not given)
Output: 0.78
